We begin with a simple list: items and their reported Potency.
- experiment.summary: G protein-coupled receptor (GPCR) small molecule agonists, calcium flux assay: HEK293 wild type cell line counter screen (AID 1920065); further: potency means the concentration at half of the fitted maximal effect
- test.settings: HEK293 WT calcium flux, fluorescence, agonist mode; series mostly up to 57.6 µM
Activity calls are given as the source filed them. The call rests on the fitted dose curve.

Req: Any idea what its Potency is? The molecule is Nc1ccc2c3c(cccc13)-c1ccccc1-2
Resp: 39.3 µM (active)

Req: Any idea what its Potency is? The molecule is CCN(CC)c1ccc2c(-c3ccccc3C(=O)O)c3ccc(=[N+](CC)CC)cc-3oc2c1
Resp: 34.7 µM (active)

Req: Any idea what its Potency is? The molecule is O=C(Nc1ccccc1)c1cc(Cl)ccc1O
Resp: 12.3 µM (active)

Req: Any idea what its Potency is? The molecule is CCCC(=O)OC[C@@H](OC(=O)CCC)[C@@H](OC(=O)CCC)[C@H](Cn1c2nc(=O)[nH]c(=O)c-2nc2cc(C)c(C)cc21)OC(=O)CCC
Resp: 15.1 µM (active)

Req: Any idea what its Potency is? The molecule is [O-][n+]1ccccc1SSc1cccc[n+]1[O-]
Resp: 4.65 µM (active)

Req: Any idea what its Potency is? The molecule is OCCN(CCO)c1nc(N2CCCCC2)c2nc(N(CCO)CCO)nc(N3CCCCC3)c2n1
Resp: 16.9 µM (active)

Please examine the following record next.
Req: Any idea what its Potency is? The molecule is O=C1OC2(c3ccc(O)cc3Oc3cc(O)ccc32)c2ccc(N=C=S)cc21
Resp: 39.6 µM (active)

----------
- experiment.summary: G protein-coupled receptor (GPCR) small molecule agonists, calcium flux assay: HEK293 wild type cell line counter screen (AID 1920065)
- test.settings: HEK293 WT calcium flux, fluorescence, agonist mode; series mostly up to 57.6 µM
Calls of active or inactive are those of the source. Calls follow the shape of the full dose curve.
value.kind: activation

Some solved entries appear below for comparison.
Req: Any idea what its activation is? The compound is CCCOc1sc(C(=O)N2CCC(c3cc(CN)ccc3F)CC2)c(C)c1Br
Resp: inactive

Req: Any idea what its activation is? The compound is CC(C)Cn1cnc2c1c(=O)n(C)c(=O)n2C
Resp: inactive

Req: Any idea what its activation is? The compound is O=C(Nc1ccc2c(c1)Cc1ccccc1-2)C(F)(F)F
Resp: inactive

Req: Any idea what its activation is? The compound is CC(C)(C)c1cc(/C=C2\SC(=N)NC2=O)cc(C(C)(C)C)c1O
Resp: inactive

Req: Any idea what its activation is? The compound is Cc1ccc(C(C)(C)C)c(O)c1
Resp: inactive

Please examine the following record next.
Req: Any idea what its activation is? The compound is Cc1ccc(Nc2nccc(N(C)c3ccc4c(C)n(C)nc4c3)n2)cc1S(N)(=O)=O
Resp: inactive

----------
- system.name: KiSS-1 receptor (Homo sapiens) (UniProt Q969F8)
- Sequence (Q969F8 whole entry, looked up): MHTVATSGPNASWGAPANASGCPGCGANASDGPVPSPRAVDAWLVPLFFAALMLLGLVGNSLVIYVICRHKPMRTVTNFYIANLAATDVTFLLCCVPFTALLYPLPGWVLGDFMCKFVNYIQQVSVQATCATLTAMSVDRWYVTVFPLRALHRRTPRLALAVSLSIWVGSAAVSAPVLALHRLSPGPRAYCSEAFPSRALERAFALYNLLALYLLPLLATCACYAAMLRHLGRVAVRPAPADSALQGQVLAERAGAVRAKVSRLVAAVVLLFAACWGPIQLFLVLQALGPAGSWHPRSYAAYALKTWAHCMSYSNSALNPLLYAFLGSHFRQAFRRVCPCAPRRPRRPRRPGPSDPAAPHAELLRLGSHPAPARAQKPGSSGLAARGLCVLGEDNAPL
- experiment.summary: Human kisspeptin (KISS1R) small molecule agonists, calcium flux assay in KISS1R-HEK293 cells (AID 1920064)
- test.settings: KISS1R-HEK293, calcium flux fluorescence, agonist; series mostly up to 76.8 µM
Calls of active or inactive are those of the source. Calls follow the shape of the dose curve; as a rule, active = well fitted activation curve with a large enough effect in the repeat runs; inconclusive = weak or mixed curves; inactive = flat fitted curve, though single readings scatter.
value.kind: activation

Some solved entries appear below for comparison.
Req: Any idea what its activation is? The compound is CC(=O)Oc1cccc2c1C(=O)c1c(OC(C)=O)cc(C(=O)O)cc1C2=O
Resp: inactive

Req: Any idea what its activation is? The compound is CC(C)C[C@H](NC(=O)CNC(=O)[C@H](Cc1ccc(O)cc1)NC(=O)[C@H](CO)NC(=O)[C@H](Cc1c[nH]c2ccccc12)NC(=O)[C@H](Cc1cnc[nH]1)NC(=O)[C@@H]1CCC(=O)N1)C(=O)N[C@@H](CCCN=C(N)N)C(=O)N1CCC[C@H]1C(=O)NCC(N)=O (stereo in doubt)
Resp: inactive

Req: Any idea what its activation is? The compound is Cc1cc(C)c(C)c(C)c1
Resp: inactive

Req: Any idea what its activation is? The compound is Cc1ccc(C(N)=O)cc1N
Resp: inactive

Req: Any idea what its activation is? The compound is c1ccc(Cc2ccccc2)cc1
Resp: inactive

Req: Any idea what its activation is? The compound is Cc1cccc(C)c1NC(=O)CN1CCN(CCCC(c2ccc(F)cc2)c2ccc(F)cc2)CC1
Resp: inactive

***
Req: Any idea what its activation is? The compound is COc1ccc(NC(=O)CC(C)=O)cc1
Resp: inactive

Req: Any idea what its activation is? The compound is CCCC/C=C/CCCCO
Resp: inactive

Req: Any idea what its activation is? The compound is CCc1cc(C2=C(C(=O)O)N(c3ccccc3C(F)(F)F)S(=O)(=O)c3ccccc32)cc2c1OCO2
Resp: inactive

Req: Any idea what its activation is? The compound is NCCCCCCNCCCCCCN
Resp: inactive

Req: Any idea what its activation is? The compound is COc1cc2c(cc1OC)-c1cc(=Nc3c(C)cc(C)cc3C)n(C)c(=O)n1CC2
Resp: inactive

Req: Any idea what its activation is? The compound is Brc1ccccc1-c1ccccc1
Resp: inactive

Req: Any idea what its activation is? The compound is CCC(CN)=C(c1ccccc1)c1ccccc1
Resp: inactive

Req: Any idea what its activation is? The compound is C[Si](C)(C)O[Si](O)(O)O
Resp: inactive

Req: Any idea what its activation is? The compound is CCN(CC)CCNc1ccc(CO)c2sc3ccccc3c(=O)c12
Resp: inactive

Req: Any idea what its activation is? The compound is CN[C@@H]1[C@@H](O)[C@@H](O[C@@H]2[C@H](O)[C@H](O[C@H]3OC(CN)=CC[C@H]3N)[C@@H](N)C[C@H]2N)OCC1(C)O (some centres undefined)
Resp: inactive

Req: Any idea what its activation is? The compound is CO[C@@]1(NC(=O)Cc2cccs2)C(=O)N2C(C(=O)O)=C(COC(N)=O)CS[C@@H]21
Resp: inactive

Req: Any idea what its activation is? The compound is CCCCCCCCCCCCCCCCC(C(=O)O)C(O)(CC(=O)O)C(=O)O (centres undefined)
Resp: inactive

Req: Any idea what its activation is? The compound is Clc1cccc(C(c2ccc3nc[nH]c3c2)n2ccnc2)c1 (centres undefined)
Resp: inactive

Req: Any idea what its activation is? The compound is Cc1ccc(O)c(C(C)(C)C)c1
Resp: inactive

Req: Any idea what its activation is? The compound is CCOC(=O)c1ccccc1C(=C1C=C(Br)C(=O)C(Br)=C1)c1cc(Br)c(O)c(Br)c1
Resp: inactive

Req: Any idea what its activation is? The compound is COc1ccc(C(=O)c2ccc(C)cc2)c(O)c1
Resp: inactive

Req: Any idea what its activation is? The compound is S=C([S-])NCCNC(=S)[S-].S=C([S-])NCCNC(=S)[S-].[Mn+2].[Zn+2]
Resp: inactive

Req: Any idea what its activation is? The compound is CN(C)C(C)(C)CO
Resp: inactive

----------
- system.name: 5-hydroxytryptamine receptor 2A (Homo sapiens) (UniProt P28223)
- Sequence (P28223 whole entry, looked up): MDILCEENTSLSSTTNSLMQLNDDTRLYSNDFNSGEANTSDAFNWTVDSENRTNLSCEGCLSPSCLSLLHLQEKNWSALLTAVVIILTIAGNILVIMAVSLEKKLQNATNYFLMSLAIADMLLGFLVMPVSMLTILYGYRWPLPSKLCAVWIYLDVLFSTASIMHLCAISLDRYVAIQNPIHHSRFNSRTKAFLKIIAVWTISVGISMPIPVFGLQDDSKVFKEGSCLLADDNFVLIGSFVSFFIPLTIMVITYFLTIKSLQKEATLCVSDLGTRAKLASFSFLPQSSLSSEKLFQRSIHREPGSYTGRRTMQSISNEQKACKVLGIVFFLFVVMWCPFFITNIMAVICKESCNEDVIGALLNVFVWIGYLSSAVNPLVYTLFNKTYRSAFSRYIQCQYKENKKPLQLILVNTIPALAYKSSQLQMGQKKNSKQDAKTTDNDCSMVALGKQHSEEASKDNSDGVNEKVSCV
- experiment.summary: 5-hydroxytryptamine receptor 2A (HTR2A) small molecule antagonists, cell-based qHTS assay (AID 1963586); further: nearly all actives have a fitted effect of over 45% in size
- test.settings: HTR2A-CHO cells, DOI-induced calcium flux, fluorescence; series mostly up to 61.5 µM
- Experimental: National Center for Advancing Translational Sciences [NCATS] Division of Preclinical Innovation [DPI] U.S. Environmental Protection Agency [EPA] National Institutes of Environmental Health Sciences [NIEHS] National Toxicology Program [NTP] […] HTR2A-CHO cells were dispensed at 2000 cells/3uL/well in 1536-well black-clear bottom plates using a Multidrop Dispenser. […] The fluorescence intensity in the plates was measured using FDSS 7000EX kinetic plate reader for 3 min at 1 sec intervals.
Records with an inconclusive call do not appear. Calls of active or inactive are those of the source. Calls follow the shape of the full dose curve.
Reply using exactly one outcome from active, inactive

Here's what some known entries look like.
Req: Tell me the recorded outcome of this test for CN(C)CCOC(=O)C(c1ccccc1)C1(O)CCCC1 (stereo not drawn) .
Resp: inactive

Req: Tell me the recorded outcome of this test for CC(C)C(C)C .
Resp: inactive

Req: Tell me the recorded outcome of this test for CC(C)c1ccc2c(c1)CC[C@H]1[C@](C)(CN)CCC[C@]21C .
Resp: active

Req: Tell me the recorded outcome of this test for O=Cc1ccc(Cl)c([N+](=O)[O-])c1 .
Resp: inactive

Req: Tell me the recorded outcome of this test for [Ca+2] .
Resp: inactive

Req: Tell me the recorded outcome of this test for CC(C)n1nc(-c2cc3cc(O)ccc3[nH]2)c2c(N)ncnc21 .
Resp: inactive

***
Req: Tell me the recorded outcome of this test for O=C(CC(=O)C(F)(F)F)c1ccccc1 .
Resp: inactive
